Molecular target: FGFR4 (human) (UniProt P22455)
Sequence (P22455 whole entry, looked up): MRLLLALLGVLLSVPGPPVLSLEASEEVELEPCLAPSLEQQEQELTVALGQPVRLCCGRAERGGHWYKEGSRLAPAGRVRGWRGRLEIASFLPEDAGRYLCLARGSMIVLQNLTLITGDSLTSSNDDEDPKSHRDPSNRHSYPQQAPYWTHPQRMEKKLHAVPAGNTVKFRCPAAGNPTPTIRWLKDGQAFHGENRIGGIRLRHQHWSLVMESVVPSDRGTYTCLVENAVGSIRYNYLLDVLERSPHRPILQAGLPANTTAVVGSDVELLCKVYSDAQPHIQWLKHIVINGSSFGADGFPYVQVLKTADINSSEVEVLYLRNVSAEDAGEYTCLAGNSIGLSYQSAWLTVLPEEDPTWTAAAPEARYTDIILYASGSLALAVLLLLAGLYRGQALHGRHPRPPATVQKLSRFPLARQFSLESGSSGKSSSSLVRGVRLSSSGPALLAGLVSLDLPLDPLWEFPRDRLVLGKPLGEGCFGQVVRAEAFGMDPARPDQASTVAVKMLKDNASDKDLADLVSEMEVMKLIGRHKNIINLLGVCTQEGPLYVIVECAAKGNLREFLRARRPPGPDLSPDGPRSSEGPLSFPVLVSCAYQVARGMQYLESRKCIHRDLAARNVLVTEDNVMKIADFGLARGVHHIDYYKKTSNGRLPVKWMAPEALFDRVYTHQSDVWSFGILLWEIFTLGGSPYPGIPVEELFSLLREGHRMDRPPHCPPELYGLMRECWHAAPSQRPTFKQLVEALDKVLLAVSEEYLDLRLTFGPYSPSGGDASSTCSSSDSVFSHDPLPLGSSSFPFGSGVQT
Experiment: radiometric filter-binding kinase assay, Kinase HotSpot
Settings: compound 0.5 µM; ATP 10 µM
quantityKind: residual activity (%)

>>> reportedresult("O=C1NC(=O)c2c1c1c3ccccc3[nH]c1n1cncc21")
78.6
>>> reportedresult("CN(C)S(=O)(=O)c1ccc2c(c1)/C(=C/c1cc3c([nH]1)CCCC3)C(=O)N2")
92.9
>>> reportedresult("COc1ccc(C(=O)Nc2sc3c(c2C(N)=O)CCCC3)cc1OC")
105
>>> reportedresult("N#C/C(=C\\c1ccc(O)c(O)c1)C(=O)NCc1ccccc1")
84.2
>>> reportedresult("COc1ccc(Cl)cc1NC(=O)Nc1cc(C)nc2ccccc12")
102
>>> reportedresult("O=C1C(Cl)=C(N2C(=O)CCC2=O)C(=O)c2ccccc21")
105

----------
Form field: residual activity (one value per entry).
Tested on: FLT4 (human), P35916 [Q890H]
Sequence (P35916 whole entry, looked up, stated change not applied): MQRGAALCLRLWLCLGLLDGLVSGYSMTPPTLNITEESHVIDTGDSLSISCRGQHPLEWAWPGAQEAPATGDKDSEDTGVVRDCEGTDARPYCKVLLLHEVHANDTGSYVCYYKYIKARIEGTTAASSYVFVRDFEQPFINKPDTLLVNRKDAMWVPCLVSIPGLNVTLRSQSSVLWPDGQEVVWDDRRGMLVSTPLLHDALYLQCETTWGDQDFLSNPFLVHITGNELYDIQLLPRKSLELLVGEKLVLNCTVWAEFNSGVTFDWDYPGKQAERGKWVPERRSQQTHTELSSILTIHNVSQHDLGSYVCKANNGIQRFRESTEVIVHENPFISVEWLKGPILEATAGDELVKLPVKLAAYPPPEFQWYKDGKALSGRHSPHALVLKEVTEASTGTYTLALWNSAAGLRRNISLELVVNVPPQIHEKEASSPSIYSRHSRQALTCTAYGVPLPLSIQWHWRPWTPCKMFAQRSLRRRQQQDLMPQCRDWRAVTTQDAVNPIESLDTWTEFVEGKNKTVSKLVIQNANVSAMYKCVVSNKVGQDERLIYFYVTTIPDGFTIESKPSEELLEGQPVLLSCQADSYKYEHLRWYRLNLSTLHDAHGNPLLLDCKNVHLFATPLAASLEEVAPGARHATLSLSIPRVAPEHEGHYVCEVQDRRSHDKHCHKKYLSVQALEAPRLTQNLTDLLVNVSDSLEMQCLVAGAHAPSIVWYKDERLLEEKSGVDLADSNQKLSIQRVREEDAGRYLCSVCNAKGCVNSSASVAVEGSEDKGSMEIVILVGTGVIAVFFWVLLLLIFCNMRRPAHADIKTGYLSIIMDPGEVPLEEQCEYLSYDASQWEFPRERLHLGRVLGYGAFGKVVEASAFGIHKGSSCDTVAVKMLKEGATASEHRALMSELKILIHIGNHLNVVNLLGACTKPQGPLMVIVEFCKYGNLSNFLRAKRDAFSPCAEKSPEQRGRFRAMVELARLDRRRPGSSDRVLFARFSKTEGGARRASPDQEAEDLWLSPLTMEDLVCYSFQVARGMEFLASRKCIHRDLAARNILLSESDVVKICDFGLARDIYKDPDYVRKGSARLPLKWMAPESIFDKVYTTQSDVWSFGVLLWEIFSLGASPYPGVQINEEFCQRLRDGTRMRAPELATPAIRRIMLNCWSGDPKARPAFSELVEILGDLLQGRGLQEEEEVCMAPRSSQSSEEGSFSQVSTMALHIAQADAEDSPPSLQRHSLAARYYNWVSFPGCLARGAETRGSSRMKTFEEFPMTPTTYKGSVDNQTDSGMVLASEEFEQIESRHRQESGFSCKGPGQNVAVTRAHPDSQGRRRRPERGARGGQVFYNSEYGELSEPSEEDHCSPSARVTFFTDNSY
Assay: radiometric filter-binding kinase assay, Kinase HotSpot
Settings: compound 0.5 µM; ATP 10 µM
quantityKind: residual activity (%)

>>> reportedresult("O=C1NC(=O)C(c2cn(CCCO)c3ncccc23)=C1c1cnccn1")
92.3
>>> reportedresult("Nc1nccc(-c2c(-c3ccc(F)cc3)ncn2C2CCNCC2)n1")
116
>>> reportedresult("Nc1nc(Nc2ccc(S(N)(=O)=O)cc2)nn1C(=S)Nc1c(F)cccc1F")
3.75
>>> reportedresult("Fc1ccc(-c2nc3n(c2-c2ccncc2)CCS3)cc1")
112
>>> reportedresult("CSc1nc(-c2ccc(F)cc2)c(-c2ccnc(NC(C)c3ccccc3)c2)[nH]1 (stereo not drawn)")
91.3
>>> reportedresult("CN([C@@H](Cc1ccc(OS(=O)(=O)c2cccc3cnccc23)cc1)C(=O)N1CCN(c2ccccc2)CC1)S(=O)(=O)c1cccc2cnccc12")
90.5
>>> reportedresult("CO[C@H]1CC2CC[C@@H](C)[C@@](O)(O2)C(=O)C(=O)N2CCCC[C@H]2C(=O)OC([C@H](C)C[C@@H]2CC[C@@H](O)[C@H](OC)C2)CC(=O)[C@H](C)/C=C(\\C)[C@@H](O)[C@@H](OC)C(=O)[C@H](C)C[C@H](C)/C=C/C=C/C=C/1C (stereo partly drawn)")
116
>>> reportedresult("Cc1cccc(-c2nc(C(C)(C)C)[nH]c2-c2ccc3c(c2)OCO3)n1")
99.8

----------
Form field: residual activity (one value per entry).
Target: INSR (human) (UniProt P06213)
Sequence (P06213 whole entry, looked up): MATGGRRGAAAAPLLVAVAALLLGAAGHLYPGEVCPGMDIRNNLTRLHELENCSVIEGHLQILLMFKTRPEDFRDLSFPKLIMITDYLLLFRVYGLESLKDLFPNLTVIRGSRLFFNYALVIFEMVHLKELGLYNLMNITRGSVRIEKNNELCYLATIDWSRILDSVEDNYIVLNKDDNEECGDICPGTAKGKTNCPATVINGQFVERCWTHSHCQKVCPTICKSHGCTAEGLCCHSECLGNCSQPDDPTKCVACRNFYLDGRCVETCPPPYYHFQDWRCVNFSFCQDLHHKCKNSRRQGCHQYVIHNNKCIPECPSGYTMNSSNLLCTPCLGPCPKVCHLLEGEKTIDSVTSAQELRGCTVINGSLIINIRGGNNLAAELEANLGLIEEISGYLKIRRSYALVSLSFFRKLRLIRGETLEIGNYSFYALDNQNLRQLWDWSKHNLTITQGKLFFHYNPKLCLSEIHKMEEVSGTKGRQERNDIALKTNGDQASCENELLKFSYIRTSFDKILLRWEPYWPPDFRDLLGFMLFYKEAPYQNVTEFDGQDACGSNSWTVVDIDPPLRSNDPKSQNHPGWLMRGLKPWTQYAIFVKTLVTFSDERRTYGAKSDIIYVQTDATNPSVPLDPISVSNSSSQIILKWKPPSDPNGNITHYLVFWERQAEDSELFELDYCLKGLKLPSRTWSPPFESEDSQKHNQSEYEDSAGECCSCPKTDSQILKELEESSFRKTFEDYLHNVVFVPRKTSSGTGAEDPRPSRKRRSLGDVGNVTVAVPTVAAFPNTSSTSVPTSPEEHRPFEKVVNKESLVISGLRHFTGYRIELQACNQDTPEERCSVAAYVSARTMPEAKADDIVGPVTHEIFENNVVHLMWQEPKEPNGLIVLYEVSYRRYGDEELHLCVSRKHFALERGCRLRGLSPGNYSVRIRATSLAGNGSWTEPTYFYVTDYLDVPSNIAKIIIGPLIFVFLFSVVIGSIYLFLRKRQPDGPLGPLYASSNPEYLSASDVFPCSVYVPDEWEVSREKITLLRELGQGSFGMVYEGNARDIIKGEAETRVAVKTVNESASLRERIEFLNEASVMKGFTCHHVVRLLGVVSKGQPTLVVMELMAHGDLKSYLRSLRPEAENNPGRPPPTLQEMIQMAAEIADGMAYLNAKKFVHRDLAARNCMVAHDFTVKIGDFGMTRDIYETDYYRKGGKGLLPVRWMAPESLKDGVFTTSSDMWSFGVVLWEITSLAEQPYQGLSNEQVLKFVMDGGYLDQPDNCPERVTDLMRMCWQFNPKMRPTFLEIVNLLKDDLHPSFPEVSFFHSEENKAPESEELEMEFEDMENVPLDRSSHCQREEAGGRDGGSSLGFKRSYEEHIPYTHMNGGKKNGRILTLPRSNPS
Assay: radiometric filter-binding kinase assay, Kinase HotSpot
Conditions: compound 0.5 µM; ATP 10 µM
quantityKind: residual activity (%)

>>> reportedresult("O=C1c2ccccc2-c2nc3nnnn3nc21")
32.3
>>> reportedresult("COc1ccc(Cl)cc1NC(=O)Nc1cc(C)nc2ccccc12")
93.2
>>> reportedresult("CCCCc1c(-c2ccc(OC)cc2)[nH]c2nccnc12")
97.6
>>> reportedresult("Cc1cccc(-c2nc(C(C)(C)C)[nH]c2-c2ccc3c(c2)OCO3)n1")
87.6
>>> reportedresult("O=C(c1cc2cc(O)ccc2[nH]1)c1cc2cc(O)ccc2[nH]1")
93.8
>>> reportedresult("CN(C)CCCn1cc(C2=C(c3c[nH]c4ccccc34)C(=O)NC2=O)c2ccccc21")
88.9
>>> reportedresult("Cn1c2ccccc2c2c3c(c4c5ccccc5n(CCC#N)c4c21)CNC3=O")
89.3
>>> reportedresult("CN(C)S(=O)(=O)c1ccc2c(c1)/C(=C/c1cc3c([nH]1)CCCC3)C(=O)N2")
91.6
>>> reportedresult("COc1ccc(C(=O)Nc2sc3c(c2C(N)=O)CCCC3)cc1OC")
93.2
>>> reportedresult("COc1ccc2c(c1)c(C1=C(c3c[nH]c4ccccc34)C(=O)NC1=O)cn2CCCN(C)C")
94.1
>>> reportedresult("COc1cc(Nc2c(C#N)cnc3cc(OCCCN4CCN(C)CC4)c(OC)cc23)c(Cl)cc1Cl")
69.8
>>> reportedresult("CN(C)c1ccc(/C=C2\\C(=O)Nc3ccccc32)cc1")
93.4
>>> reportedresult("O=C1Nc2ccc(Br)cc2/C1=C\\c1cc2c([nH]1)CCCC2")
85.8
>>> reportedresult("N#C/C(=C\\c1ccc(O)c(O)c1)C(=O)NCc1ccccc1")
93.8
>>> reportedresult("COc1ccc(S(=O)(=O)N(CCO)c2ccccc2CN(C)C/C=C/c2ccc(Cl)cc2)cc1")
103
>>> reportedresult("CS(=O)(=O)CCNCc1ccc(-c2ccc3ncnc(Nc4ccc(OCc5cccc(F)c5)c(Cl)c4)c3c2)o1")
105
>>> reportedresult("C[C@@H]1CCN(C(=O)CC#N)C[C@@H]1N(C)c1ncnc2[nH]ccc12")
101
>>> reportedresult("COc1cc2ncnc(Nc3ccc(OCc4ccccc4)cc3)c2cc1OC")
100
>>> reportedresult("COc1cc2ncnc(Nc3ccc(Oc4ccccc4)cc3)c2cc1OC")
88.8
>>> reportedresult("Fc1ccc(-c2nc3n(c2-c2ccncc2)CCS3)cc1")
91.2
>>> reportedresult("O=C1C(Cl)=C(N2C(=O)CCC2=O)C(=O)c2ccccc21")
105
>>> reportedresult("CO[C@@H]1[C@H](N(C)C(=O)c2ccccc2)C[C@H]2O[C@]1(C)n1c3ccccc3c3c4c(c5c6ccccc6n2c5c31)C(=O)NC4")
106
>>> reportedresult("Cc1cncc2cccc(S(=O)(=O)N3CCCN(C(=O)CN)C[C@H]3C)c12")
88.9
>>> reportedresult("Ic1cccc(CSc2nnc(-c3ccncc3)o2)c1")
83.5
>>> reportedresult("c1ccc2c(-c3ccncc3)c[nH]c2c1")
90.5
>>> reportedresult("CC(C)(C)c1cc(C=C(C#N)C#N)cc(Br)c1O")
105
>>> reportedresult("N#Cc1c[nH]c2c[nH]/c(=N\\Cc3cccnc3)cc2/c1=N\\c1ccc(F)c(Cl)c1")
85.1
>>> reportedresult("O=C1NC(=O)c2c1c1c3ccccc3[nH]c1n1cncc21")
17.9
>>> reportedresult("NC(=O)c1cccc(-c2cc(Nc3ccc(OC(F)(F)F)cc3)ncn2)c1")
105
>>> reportedresult("Cc1nc(-c2ccccc2)c(-c2ccncc2)o1")
85.6
